Below, each entry is listed alongside its reported MIC.
tested on: B. fragilis ATCC 25285; test: MIC against B. fragilis ATCC 25285; type: cell-based; conditions: Bacteroides fragilis, ATCC25285; B. fragilis ATCC 25285; read-out: MIC
Just the number in µg/mL, nothing appended.

Please review the entries below; each comes with its answer.
Molecule | Test Target | Unit Abbreviation | MIC
CSC1O[C@H]([C@H](NC(=O)[C@H]2NC[C@@H]3CC=CCO[C@H]32)[C@H](C)Cl)C(O)[C@@H](O)[C@H]1O (stereo partly shown) | B. fragilis ATCC 25285 | µg/mL | 8
C=CC1=CCO[C@@H]2[C@H](CN[C@@H]2C(=O)N[C@H]([C@H](C)Cl)[C@H]2OC(SC)[C@H](O)[C@H](O)C2O)C1 (stereo partly shown) | B. fragilis ATCC 25285 | µg/mL | 2
CSC1O[C@H]([C@H](NC(=O)[C@@H]2[C@@H]3OCC=CC[C@H]3CN2C)[C@H](C)Sc2ccc(-c3cncnc3)cc2)C(O)[C@@H](O)[C@H]1O (stereo partly shown) | B. fragilis ATCC 25285 | µg/mL | 1

Here is the next item to consider.
Input line: Look up and state reported MIC for CSC1O[C@H]([C@H](NC(=O)[C@H]2NC[C@@H]3CC(F)(F)CCO[C@H]32)[C@H](C)Cl)C(O)[C@@H](O)[C@H]1O (stereo partly shown)
Output line: 4

* * *

Below, each entry is listed alongside its reported MIC.
tested on: S. aureus MMX 3035 cErmA; assay: MIC against S. aureus MMX 3035 cErmA; type: cell-based; details: Staphylococcus aureus, MMX3035CERMA

Please review the entries below; each comes with its answer.
Compound | MIC
C[C@@H](O)[C@@H](NC(=O)[C@H]1NC[C@@H]2CC=CCO[C@H]21)[C@H]1OC(CN=[N+]=[N-])[C@H](O)[C@H](O)C1O (some centres unmarked) | > 64 µg/mL
Cc1ccc(S(=O)(=O)OCC2O[C@H]([C@H](NC(=O)[C@H]3NC[C@@H]4CC=CCO[C@H]43)[C@@H](C)O)C(O)[C@@H](O)[C@H]2O)cc1 (some centres unmarked) | > 64 µg/mL
CSC1O[C@H]([C@H](NC(=O)[C@H]2NC[C@@H]3C=C(c4ccc(C(F)(F)F)cc4)CCO[C@@H]23)[C@H](C)Cl)C(O)[C@@H](O)[C@H]1O (some centres unmarked) | > 64 µg/mL
CSC1O[C@H]([C@H](NC(=O)[C@H]2NC[C@H]3CC=CCO[C@H]32)[C@H](C)Cl)C(O)[C@@H](O)[C@H]1O (some centres unmarked) | > 32 µg/mL

Input line: Look up and state reported MIC for CSC1O[C@H]([C@H](NC(=O)[C@H]2NC[C@@H]3CC=CCO[C@H]32)[C@H](C)Sc2ccc(-c3cncnc3)cc2)C(O)[C@@H](O)[C@H]1O (some centres unmarked)
Output line: > 64 µg/mL

* * *

tested on: E. coli MP-74 LptD mutant; experiment: MIC against E. coli MP-74 LptD mutant; type: cell-based; conditions: Escherichia coli
Below, each entry is listed alongside its reported MIC.

Compound | Test Target | Property Measured | Result
CSC1O[C@H]([C@H](NC(=O)[C@H]2NC[C@@H]3CCCCO[C@@H]32)[C@H](C)Cl)C(O)[C@@H](O)[C@H]1O (stereo partly shown) | E. coli MP-74 LptD mutant | MIC | > 64 µg/mL
CSC1O[C@H]([C@H](NC(=O)[C@H]2NC[C@@H]3CC=CCO[C@@H]32)[C@H](C)Cl)C(O)[C@@H](O)[C@H]1O (stereo partly shown) | E. coli MP-74 LptD mutant | MIC | > 64 µg/mL
CSC1O[C@H]([C@H](NC(=O)[C@H]2NC[C@@H]3CC(NCc4cccc(F)c4)CCO[C@H]32)[C@H](C)Cl)C(O)[C@@H](O)[C@H]1O (stereo partly shown) | E. coli MP-74 LptD mutant | MIC | > 64 µg/mL

Input line: Look up and state reported MIC for CSC1O[C@H]([C@H](NC(=O)[C@H]2NC[C@@H]3C[C@@H](CCc4cccc(F)c4)CCO[C@H]32)[C@H](C)Cl)C(O)[C@@H](O)[C@H]1O (stereo partly shown)
Output line: 4 µg/mL

Input line: Look up and state reported MIC for COc1ccc(C2CCO[C@@H]3[C@H](CN[C@@H]3C(=O)N[C@H]([C@H](C)Cl)[C@H]3OC(SC)[C@H](O)[C@H](O)C3O)C2)cc1 (stereo partly shown)
Output line: 37 µg/mL

Input line: Look up and state reported MIC for CNC1CCO[C@@H]2[C@H](CN[C@@H]2C(=O)N[C@H]([C@H](C)Cl)[C@H]2OC(SC)[C@H](O)[C@H](O)C2O)C1 (stereo partly shown)
Output line: > 64 µg/mL

Input line: Look up and state reported MIC for CSC1O[C@H]([C@H](NC(=O)[C@H]2NC[C@@H]3CC(NCc4ccc(F)cc4)CCO[C@H]32)[C@H](C)Cl)C(O)[C@@H](O)[C@H]1O (stereo partly shown)
Output line: > 64 µg/mL

Input line: Look up and state reported MIC for CSC1O[C@H]([C@H](NC(=O)[C@H]2NC[C@@H]3CC(N)CCO[C@H]32)[C@H](C)Cl)C(O)[C@@H](O)[C@H]1O (stereo partly shown)
Output line: > 64 µg/mL

Input line: Look up and state reported MIC for CSC1O[C@H]([C@H](NC(=O)[C@H]2NC[C@@H]3CC(NCc4ccccc4F)CCO[C@H]32)[C@H](C)Cl)C(O)[C@@H](O)[C@H]1O (stereo partly shown)
Output line: > 64 µg/mL

Input line: Look up and state reported MIC for CSC1O[C@H]([C@H](NC(=O)[C@H]2NC[C@@H]3C[C@@H](C4CCN(C)CC4)CCO[C@H]32)[C@H](C)Cl)C(O)[C@@H](O)[C@H]1O (stereo partly shown)
Output line: > 256 µg/mL

* * *

tested on: S. pyogenes MMX 946 Macrolide-Resistant; test: MIC against S. pyogenes MMX 946 Macrolide-Resistant; format: cell-based; conditions: Streptococcus pyogenes
Below, each entry is listed alongside its reported MIC.

Please review the entries below; each comes with its answer.
Molecule | Test Target | MIC
CSC1O[C@H]([C@H](NC(=O)[C@H]2NC[C@@H]3CC=CCO[C@H]32)[C@H](C)Cl)C(O)[C@@H](O)[C@H]1O (stereo partly shown) [FSA-24035] | S. pyogenes MMX 946 Macrolide-Resistant | 16 µg/mL
CSC1O[C@H]([C@H](NC(=O)[C@H]2NC[C@@H]3CC(c4ccc(F)cc4)=CCO[C@H]32)[C@H](C)Cl)C(O)[C@@H](O)[C@H]1O (stereo partly shown) [FSA-507057] | S. pyogenes MMX 946 Macrolide-Resistant | > 64 µg/mL
C[C@@H](O)[C@@H](NC(=O)[C@H]1NC[C@@H]2CC=CCO[C@H]21)[C@H]1OC(CN=[N+]=[N-])[C@H](O)[C@H](O)C1O (stereo partly shown) [FSA-211064] | S. pyogenes MMX 946 Macrolide-Resistant | > 64 µg/mL

Here is the next item to consider.
Input line: Look up and state reported MIC for CSC1O[C@H]([C@H](NC(=O)[C@H]2NC[C@@H]3C=C(c4ccccc4)CCO[C@@H]23)[C@H](C)Cl)C(O)[C@@H](O)[C@H]1O (stereo partly shown) [FSA-507031]
Output line: > 32 µg/mL

* * *

system: S. pyogenes MMX 946 Macrolide-Resistant; test: MIC against S. pyogenes MMX 946 Macrolide-Resistant; format: cell-based; conditions: Streptococcus pyogenes
Below, each entry is listed alongside its reported MIC.

Please review the entries below; each comes with its answer.
Molecule | MIC
CSC1O[C@H]([C@H](NC(=O)[C@H]2NC[C@@H]3C=C(c4ccc(F)cc4)CCO[C@@H]23)[C@H](C)Cl)C(O)[C@@H](O)[C@H]1O (some centres unmarked) [FSA-507052] | > 32 µg/mL
C=CC1=CCO[C@@H]2[C@H](CN[C@@H]2C(=O)N[C@H]([C@H](C)Cl)[C@H]2OC(SC)[C@H](O)[C@H](O)C2O)C1 (some centres unmarked) [FSA-507041] | > 32 µg/mL
Cc1ccc(S(=O)(=O)OCC2O[C@H]([C@H](NC(=O)[C@H]3NC[C@@H]4CC=CCO[C@H]43)[C@@H](C)O)C(O)[C@@H](O)[C@H]2O)cc1 (some centres unmarked) [FSA-211030] | > 64 µg/mL

Input line: For S. pyogenes MMX 946 Macrolide-Resistant, give MIC of the listed molecule: CSC1O[C@H]([C@H](NC(=O)[C@H]2NC[C@@H]3CC(c4ccccc4)=CCO[C@H]32)[C@H](C)Cl)C(O)[C@@H](O)[C@H]1O (some centres unmarked) [FSA-507056]
Output line: > 32 µg/mL

Input line: For S. pyogenes MMX 946 Macrolide-Resistant, give MIC of the listed molecule: CSC1O[C@H]([C@H](NC(=O)[C@H]2NC[C@H]3CC=CCO[C@H]32)[C@H](C)Cl)C(O)[C@@H](O)[C@H]1O (some centres unmarked) [FSA-507051]
Output line: > 32 µg/mL

# credit: patent US20220073554A1
